- Subject of test: Progesterone receptor (Homo sapiens) (UniProt P06401)
- Sequence (P06401 whole entry, looked up): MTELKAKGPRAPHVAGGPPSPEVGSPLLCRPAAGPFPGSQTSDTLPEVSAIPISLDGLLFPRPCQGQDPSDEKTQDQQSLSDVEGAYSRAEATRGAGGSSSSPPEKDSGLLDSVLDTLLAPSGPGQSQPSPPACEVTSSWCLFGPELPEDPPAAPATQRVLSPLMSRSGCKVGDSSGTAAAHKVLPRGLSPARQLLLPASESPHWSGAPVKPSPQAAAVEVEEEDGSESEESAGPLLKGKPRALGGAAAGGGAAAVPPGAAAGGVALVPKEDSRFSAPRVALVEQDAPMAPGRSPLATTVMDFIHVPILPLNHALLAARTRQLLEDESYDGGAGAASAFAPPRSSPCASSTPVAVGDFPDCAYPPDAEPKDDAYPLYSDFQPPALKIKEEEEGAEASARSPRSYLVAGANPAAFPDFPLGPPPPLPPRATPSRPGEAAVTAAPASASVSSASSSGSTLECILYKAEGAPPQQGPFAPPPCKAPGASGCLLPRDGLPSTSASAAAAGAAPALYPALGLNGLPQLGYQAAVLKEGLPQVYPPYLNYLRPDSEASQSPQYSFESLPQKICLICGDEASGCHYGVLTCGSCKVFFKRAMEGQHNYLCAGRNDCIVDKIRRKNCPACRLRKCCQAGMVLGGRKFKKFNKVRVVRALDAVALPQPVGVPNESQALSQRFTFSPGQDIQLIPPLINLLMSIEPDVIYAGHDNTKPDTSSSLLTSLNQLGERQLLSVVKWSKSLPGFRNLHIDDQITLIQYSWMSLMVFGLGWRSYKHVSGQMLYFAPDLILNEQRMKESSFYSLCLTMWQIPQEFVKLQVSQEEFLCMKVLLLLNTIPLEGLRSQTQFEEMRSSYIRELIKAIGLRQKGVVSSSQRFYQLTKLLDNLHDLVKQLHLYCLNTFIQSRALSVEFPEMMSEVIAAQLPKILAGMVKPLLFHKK
- Test: qHTS assay to identify small molecule agonists of the progesterone receptor (PR) signaling pathway (AID 1346784); also: nearly all actives have a fitted effect of over 30% in size
- Recorded conditions: PR-UAS-bla HEK293T, beta-lactamase FRET ratio, 16 h; series mostly up to 92.4 µM
Inconclusive results are not listed. Calls of active or inactive are those of the source. Calls follow the shape of the full dose curve.
Recorded endpoint: outcome

Please review the entries below; each comes with its answer.
# Structure string, Subject of test, Recorded endpoint, Result
measured = [
    ("OB(O)O", "Progesterone receptor (Homo sapiens) (UniProt P06401)", "outcome", "inactive"),
    ("CC(=O)OC[C@H]1O[C@@](COC(C)=O)(O[C@H]2O[C@H](COC(C)=O)[C@@H](OC(C)=O)[C@H](OC(C)=O)[C@H]2OC(C)=O)[C@@H](OC(C)=O)[C@@H]1OC(C)=O", "Progesterone receptor (Homo sapiens) (UniProt P06401)", "outcome", "inactive"),
    ("CCOC(=O)CC(=O)OCC", "Progesterone receptor (Homo sapiens) (UniProt P06401)", "outcome", "inactive"),
    ("CC(=O)Nc1ccc(CC(=O)O)cc1", "Progesterone receptor (Homo sapiens) (UniProt P06401)", "outcome", "inactive"),
]

Record lookup: for Progesterone receptor (Homo sapiens) (UniProt P06401), what outcome belongs to COc1c(Cl)ccc(Cl)c1C(=O)O ?
inactive

Record lookup: for Progesterone receptor (Homo sapiens) (UniProt P06401), what outcome belongs to C=CC(C)(C)C ?
inactive

====

- Subject of test: Aryl hydrocarbon receptor (Homo sapiens)
- Test: qHTS assay to identify small molecule that activate the aryl hydrocarbon receptor (AhR) signaling pathway (AID 743085); also: nearly all actives have a fitted effect of over 15% in size;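 as to activation: HG2L7.5c1 human HepG2 liver cells with stably integrated DRE-driven firefly reporter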
- Recorded conditions: HepG2 AhR-luc (HG2L7.5c1), luciferase, 24 h; series mostly up to 70.3 µM
Inconclusive results are not listed. Calls of active or inactive are those of the source. Calls follow the shape of the dose curve; as a rule, active = well fitted activation curve with a large enough effect in the repeat runs; inconclusive = weak or mixed curves; inactive = no such curve, though single readings can be large or run the other way.
Valid outcomes are listed here; reply with one: active, inactive

Example cases with answers are listed next.
# Molecule, Subject of test, Assigned class
records = [
    ("CCCN(CCC)C(=O)SCC", "Aryl hydrocarbon receptor (Homo sapiens)", "inactive"),
    ("CC(=O)OCc1ccc2c(c1)OCO2", "Aryl hydrocarbon receptor (Homo sapiens)", "inactive"),
    ("Cc1ccc([N+](=O)[O-])cc1N", "Aryl hydrocarbon receptor (Homo sapiens)", "active"),
]

Write down the call the test reported for this molecule. Item: OCC(CO)(CO)CO
inactive

Write down the call the test reported for this molecule. Item: CCc1cccc(CC)c1N
inactive

Write down the call the test reported for this molecule. Item: C=CC(C)(C)C
inactive

Write down the call the test reported for this molecule. Item: CC1(C)[C@@H](O[C@H]2O[C@H](C(=O)O)[C@@H](O)[C@H](O)[C@H]2O[C@@H]2O[C@H](C(=O)O)[C@@H](O)[C@H](O)[C@H]2O)CC[C@]2(C)[C@H]3C(=O)C=C4[C@@H]5C[C@@](C)(C(=O)O)CC[C@]5(C)CC[C@@]4(C)[C@]3(C)CC[C@@H]12
inactive

Write down the call the test reported for this molecule. Item: CCc1cccc(O)c1
inactive

Write down the call the test reported for this molecule. Item: CC(O)CNCC(C)O (stereo not drawn)
inactive

Write down the call the test reported for this molecule. Item: CC(=O)OC(C)(C)C1CC=C(C)CC1 (stereo not drawn)
inactive

Write down the call the test reported for this molecule. Item: C=C(CC(=O)O)C(=O)O
inactive

Write down the call the test reported for this molecule. Item: C=CC(=O)NCOCCCC
inactive

Write down the call the test reported for this molecule. Item: CCN(CC)CCNC(=O)c1ccc(N)cc1
inactive

The reported numbers originate from PubChem BioAssay (Tox21).
